- Test system: A549
- Protocol Text: Cytotoxicity against human A549 cells by MTT assay
- Format: functional, cell-based
Recorded IC50, one value per entry.

Study these solved cases before continuing.
{"Molecule": "CCCCOC(=O)[C@H]1O[C@@H](O[C@H]2CC[C@]3(C)[C@H]4CC=C5[C@@H]6CC(C)(C)[C@@H](OC(=O)/C=C(\\C)CCC=C(C)C)[C@H](OC(=O)C(C)CC)[C@]6(CO)[C@H](O)[C@H](O)[C@@]5(C)[C@]4(C)CC[C@H]3C2(C)C)[C@H](O[C@@H]2O[C@H](CO)[C@@H](O)[C@H](O)[C@H]2O)[C@@H](O)[C@@H]1O[C@@H]1O[C@@H](CO)[C@H](O)[C@H]1O (stereo partly drawn) [SYMPLOCOSOSIDE D]", "Result": "> 10 µM"}
{"Molecule": "CC(C)=CCC/C(C)=C\\C(=O)O[C@H]1[C@H](OC(=O)C(C)C)[C@]2(CO)[C@H](O)[C@H](O)[C@]3(C)C(=CC[C@@H]4[C@@]5(C)CC[C@H](O)C(C)(C)[C@@H]5CC[C@]43C)[C@@H]2CC1(C)C", "Result": "> 10 µM"}

Next:
Challenge: IC50 lookup needed for CCC(C)C(=O)O[C@H]1[C@H](OC(=O)/C=C/c2ccccc2)C(C)(C)C[C@H]2C3=CC[C@@H]4[C@@]5(C)CC[C@H](O[C@@H]6O[C@H](C(=O)O)[C@@H](O)[C@H](O)[C@H]6O[C@@H]6O[C@H](CO)[C@@H](O)[C@H](O)[C@H]6O)C(C)(C)[C@@H]5CC[C@@]4(C)[C@]3(C)[C@@H](O)[C@@H](O)[C@]21CO (stereo partly drawn) [SYMPLOCOSOSIDE N] , thanks.
Response given: > 10 µM
